src = paper PMC8072159

Please respond with reported melting point for every item in the list.

Answered examples (4):
O=C1/C(=C/c2cc(F)ccc2F)CC/C1=C\c1cc(F)ccc1F :: 208.1 to 209.8 °C
COc1cc(OC)c(/C=C2\CC/C(=C\c3c(OC)cc(OC)cc3OC)C2=O)c(OC)c1 :: 195 to 197.8 °C
Cc1ccc(/C=C2\CC/C(=C\c3ccc(C)cc3C)C2=O)c(C)c1 :: 128.8 to 131.8 °C
O=C1/C(=C/c2cccc(Cl)c2Cl)CC/C1=C\c1cccc(Cl)c1Cl :: 204.6 to 206.8 °C

Here's the next entry for you.
Q: Need melting point of O=C1/C(=C/c2ccc(Cl)cc2Cl)CC/C1=C\c1ccc(Cl)cc1Cl , thanks.
A: 209.4 to 212 °C

----------
# SYSTEM: 11β-HSD1 (Rattus norvegicus)
# Construct: from tissue; host or cells: liver microsomes of male Sprague Dawley rats, prepared in house
# MEASUREMENT_DESCRIPTION: 11β-HSD1 reductive activity in rat liver microsomes
# Type: biochemical
# ASSAY_CONDITIONS: rat liver microsomes, 25 nM 11DHC, NADPH
OBSERVED_PROPERTY: pIC50
Answers are plain numbers, as −log10 of the molar value.

Q: Need pIC50 of O=C1/C(=C/c2c(F)cccc2F)CC/C1=C\c1c(F)cccc1F , thanks.
A: 6.42

----------
# SYSTEM: 11β-HSD1 (Rattus norvegicus, UniProt P16232)
# Construct: from tissue; host or cells: liver microsomes of male Sprague Dawley rats, prepared in house
# Sequence (P16232 whole entry): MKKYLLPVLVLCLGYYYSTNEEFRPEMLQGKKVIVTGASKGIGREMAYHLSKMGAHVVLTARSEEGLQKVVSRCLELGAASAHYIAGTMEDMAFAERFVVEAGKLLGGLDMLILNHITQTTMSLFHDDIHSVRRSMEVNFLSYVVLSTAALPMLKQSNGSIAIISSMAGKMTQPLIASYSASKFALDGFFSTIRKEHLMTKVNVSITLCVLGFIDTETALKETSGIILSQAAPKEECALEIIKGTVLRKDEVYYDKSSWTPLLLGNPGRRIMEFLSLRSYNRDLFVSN
# MEASUREMENT_DESCRIPTION: 11β-HSD1 activity in intact rat Leydig cells
# Format: cell-based
# ASSAY_CONDITIONS: read-out: IC50 rat Leydig cell 11β-HSD1
OBSERVED_PROPERTY: pIC50
Numbers only, as −log10 of the molar value.

Q: Need pIC50 of O=C1/C(=C/c2c(F)cccc2F)CC/C1=C\c1c(F)cccc1F , thanks.
A: 6.77
